# system_name: human recombinant beta-2 adrenoreceptors (Homo sapiens, UniProt P07550)
# Sequence (P07550 whole entry): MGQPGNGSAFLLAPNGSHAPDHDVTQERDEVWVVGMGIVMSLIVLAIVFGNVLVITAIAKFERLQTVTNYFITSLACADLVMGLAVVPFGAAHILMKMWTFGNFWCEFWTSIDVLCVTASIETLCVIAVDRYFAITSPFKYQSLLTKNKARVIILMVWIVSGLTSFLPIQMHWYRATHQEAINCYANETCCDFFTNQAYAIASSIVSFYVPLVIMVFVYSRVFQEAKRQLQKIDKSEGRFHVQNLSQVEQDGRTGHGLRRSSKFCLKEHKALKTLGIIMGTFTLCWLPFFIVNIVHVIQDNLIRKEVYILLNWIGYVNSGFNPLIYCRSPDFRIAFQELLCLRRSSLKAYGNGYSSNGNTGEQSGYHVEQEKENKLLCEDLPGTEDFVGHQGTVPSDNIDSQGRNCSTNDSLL
# assay_overview: Functional agonism of human recombinant beta-2 adrenoreceptors expressed in CHO cells (cAMP HTRF)
# run_conditions: CHO cells expressing human beta-2 adrenoreceptors, cAMP elevation, 30 min
assay_metric: EC50

Solved cases (6 shown):
QUERY: Please look at this compound and report its EC50: COc1cccc(Nc2c(C(N)=O)cnc3c(C)cc(S(=O)(=O)c4cccc(C(=O)Nc5ccc(C#CCCCNC[C@H](O)c6ccc(O)c7[nH]c(=O)ccc67)cc5C)c4)cc23)c1
RESULT: < 100 nM

QUERY: Please look at this compound and report its EC50: COc1cccc(Nc2c(C(N)=O)cnc3c(C)cc(S(=O)(=O)c4cccc(C(=O)N(C)CCCCCCNC[C@H](O)c5ccc(O)c(NC=O)c5)c4)cc23)c1
RESULT: < 100 nM

QUERY: Please look at this compound and report its EC50: COc1cccc(Nc2c(C(N)=O)cnc3c(C)cc(S(=O)(=O)c4cccc(C(=O)Nc5ccc(C#CCCCNC[C@H](O)c6cc(O)cc7c6OCC(=O)N7)cc5)c4)cc23)c1
RESULT: < 300 nM

QUERY: Please look at this compound and report its EC50: COc1cccc(Nc2c(C(N)=O)cnc3c(C)cc(S(=O)(=O)c4cccc(-c5ccc(CNC[C@H](O)c6ccc(O)c7[nH]c(=O)ccc67)cc5)c4)cc23)c1
RESULT: > 300 nM

QUERY: Please look at this compound and report its EC50: COc1cccc(Nc2c(C(N)=O)cnc3c(C)cc(S(=O)(=O)c4cccc(C(=O)Nc5ccc(CCCCCNC[C@H](O)c6ccc(O)c(CO)c6)cc5)c4)cc23)c1 [Example 26, 2,2,2-trifluoroacetate]
RESULT: > 300 nM

QUERY: Please look at this compound and report its EC50: COc1cccc(Nc2c(C(N)=O)cnc3c(C)cc(S(=O)(=O)c4cccc(C(=O)N5CCN(C(=O)c6cccc(CC(C)NC[C@H](O)c7ccc(O)c8[nH]c(=O)ccc78)c6)CC5)c4)cc23)c1 (some centres unmarked)
RESULT: < 100 nM

Please give EC50, item by item, for the list that follows.
1. COc1cccc(Nc2c(C(N)=O)cnc3c(C)cc(S(=O)(=O)c4cccc(C(=O)Nc5ccc(C#CCCCCNC[C@H](O)c6ccc(O)c7[nH]c(=O)ccc67)cc5)c4)cc23)c1
2. COc1cccc(Nc2c(C(N)=O)cnc3c(C)cc(S(=O)(=O)c4cccc(C(=O)Nc5ccc(C#CCCCNC[C@H](O)c6ccc(O)c7c6OCC(=O)N7)cc5)c4)cc23)c1
3. COc1cccc(Nc2c(C(N)=O)cnc3c(C)cc(S(=O)(=O)c4cccc(C(=O)N5CCN(C(=O)c6cccc(CC(C)(C)NC[C@H](O)c7ccc(O)c8[nH]c(=O)ccc78)c6)CC5)c4)cc23)c1
4. COc1cccc(Nc2c(C(N)=O)cnc3c(C)cc(S(=O)(=O)c4cccc(C(=O)Nc5ccc(C#CCCCN(C)C[C@H](O)c6ccc(O)c7[nH]c(=O)ccc67)cc5)c4)cc23)c1
5. COc1cccc(Nc2c(C(N)=O)cnc3c(C)cc(S(=O)(=O)c4cccc(C(=O)Nc5ccc(CCCCOCCCCCCNC[C@H](O)c6ccc(O)c7[nH]c(=O)ccc67)cc5)c4)cc23)c1

RESULT:
1: < 100 nM; 2: < 100 nM; 3: < 100 nM; 4: > 300 nM; 5: < 100 nM
